CC50 by entry:
# Test system: A549
# measurement.description: SRB colorimetric assay of cell growth and viability, A549
# Type: cell-based
# setup.conditions: Homo sapiens, A549, 72 h, read-out: LC50 A549
measured.attribute: CC50

| smiles.record | measured.attribute | recorded.result |
| --- | --- | --- |
| COc1c(C)cc2c(c1O)[C@H]1N[C@@H](C2)[C@H](C#N)N2[C@H]1[C@@H]1SC[C@]3(NCCc4c3oc3ccccc43)C(=O)OC[C@H]2c2c3c(c(C)c(OC(C)=O)c21)OCO3 | CC50 | > 133 nM |
| COc1c(C)cc2c(c1O)[C@H]1N[C@@H](C2)[C@H](O)N2[C@H]1[C@@H]1SC[C@]3(NCCc4c3oc3ccccc43)C(=O)OC[C@H]2c2c3c(c(C)c(OC(C)=O)c21)OCO3 | CC50 | > 135 nM |
| COc1ccc2[nH]c3c(c2c1)CCN[C@]31CS[C@@H]2c3c(OC(C)=O)c(C)c4c(c3[C@H](COC1=O)N1[C@@H]2[C@@H]2N[C@@H](Cc3cc(C)c(OC)c(O)c32)[C@@H]1C#N)OCO4 | CC50 | > 1280 nM |

----------
Recorded GI50 values (HT29) are given below.
measured.attribute: GI50 (nM)

| compound | recorded.result |
| --- | --- |
| COc1c(C)cc2c(c1O)[C@H]1N[C@@H](C2)[C@H](O)N2[C@H]1[C@@H]1SC[C@]3(NCCc4c3[nH]c3ccccc43)C(=O)OC[C@H]2c2c3c(c(C)c(OC(C)=O)c21)OCO3 [ET-722, Ecteinascidin 722] | 1.35 |
| COc1c(C)cc2c(c1O)[C@H]1N[C@@H](C2)[C@H](C#N)N2[C@H]1[C@@H]1SC[C@]3(NCCc4c3oc3ccccc43)C(=O)OC[C@H]2c2c3c(c(C)c(OC(C)=O)c21)OCO3 [Compound 14] | 8.52 |
| COc1ccc2[nH]c3c(c2c1)CCN[C@]31CS[C@@H]2c3c(OC(C)=O)c(C)c4c(c3[C@H](COC1=O)N1[C@@H]2[C@@H]2N[C@@H](Cc3cc(C)c(OC)c(O)c32)[C@@H]1O)OCO4 [Compound 1] | 1.28 |

----------
CC50 by entry:
# Test system: A549
# measurement.description: SRB colorimetric assay of cell growth and viability, A549
# Assay type: cell-based
# setup.conditions: Homo sapiens, A549, 72 h, read-out: LC50 A549

| smiles.record | CC50 |
| --- | --- |
| COc1ccc2[nH]c3c(c2c1)C[C@H](CO)N[C@]31CS[C@@H]2c3c(OC(C)=O)c(C)c4c(c3[C@H](COC1=O)N1[C@@H]2[C@@H]2N[C@@H](Cc3cc(C)c(OC)c(O)c32)[C@@H]1C#N)OCO4 | > 123 nM |
| COc1ccc2[nH]c3c(c2c1)CCN[C@]31CS[C@@H]2c3c(OC(C)=O)c(C)c4c(c3[C@H](COC1=O)N1[C@@H]2[C@@H]2N[C@@H](Cc3cc(C)c(OC)c(O)c32)[C@@H]1O)OCO4 | 7.78 nM |
| COc1ccc2[nH]c3c(c2c1)C[C@H](CO)N[C@]31CS[C@@H]2c3c(OC(C)=O)c(C)c4c(c3[C@H](COC1=O)N1[C@@H]2[C@@H]2N[C@@H](Cc3cc(C)c(OC)c(O)c32)[C@@H]1O)OCO4 | > 125 nM |
| COc1c(C)cc2c(c1O)[C@H]1N[C@@H](C2)[C@H](O)N2[C@H]1[C@@H]1SC[C@]3(NCCc4c3[nH]c3ccccc43)C(=O)OC[C@H]2c2c3c(c(C)c(OC(C)=O)c21)OCO3 | > 135 nM |
